// reported pre-steady-state target cleavage rate for each item listed
- System: MIWI (PIWIL1) piRISC loaded with L1MC piRNA (30 nt);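 further: 1 nM active piRISC with 0.1 nM target library at 33 °C single turnover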
- MEASUREMENT PROTOCOL: pre-steady-state target cleavage rate (min^-1); MIWI and MILI are mouse PIWI proteins and EfPiwi is from a freshwater sponge; tags in brackets are library labels; higher = faster piRNA-guided slicing of the target;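 further: 1 nM active piRISC with 0.1 nM target library at 33 °C single turnover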
- COND: guide: L1MC piRNA 5'p-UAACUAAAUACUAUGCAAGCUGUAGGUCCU; auxiliary factor: 500 nM mouse GTSF1
Whole data set: some 8,200 sequences, median “pre-steady-state target cleavage rate” near 0.024, cut for the highest 2% near 1.3. Only a selection was taken, and the highest values are over-represented in it overall.
METRIC: pre-steady-state target cleavage rate

SEQUENCE CHAIN	MEAS VALUE
AGGAACUACAGCUUGCAUAGUAUUUAGUUA	1.3
UGGACCUACAGCUUGCAGUAGUAUUUAGUUA	0.00477
AGGACCUACCGCUUGCAUAGUAUUUAGUUA	1.43
UCCUGCUACAGGUUGCAUAGUAUUUAGUUA	1.03
UCCUGGAUGUGCUUGCAUUGUUUUUAGUUA	0.0048
UCGACCUACAGCUUGCAUAUUAUUUAGUUA	1.5
AGGACCUACAGCAACCAUAGUAUUUAGUUA	0.426
AGAGACCUACAGCUUGCAUAGUAUUUAGUUA	1.46
UGAACCUACAGCUUGCAUAGUAUUUAGUUA	1.63
UGGACCUACCAGCUUGCAUAGUAUUUAGUUA	1.25
UGGACCUACGAGCUUGCAUAGUAUUUAGUUA	0.657
UCGACCUACAGCAUGCAUUGUAUUUAGUUA	0.944
UCCUGCUACAGCUUGCAUAGUGUUUAGUUA	0.648
UGGAGCUACAGCUUCCAUAGUAUUUAGUUA	0.275
UCGAACCUACAGCUUGCAUAGUAUUUAGUUA	1.37
UCCACCUACCGCUUGCAUAGUAUUUAGUUA	1.11
